system: nectin 4 protein on NIH:OVCAR-5 cells; experiment: Effect of peptides on anti-Nectin-4 antibody binding to cells as determined by flow cytometry; assay type: cell-based, human; settings: Run Three; IgG control primary antibody; Control 3 = 1330
Where no end group is shown, it is not given here.
Field: IgG MFI. Provide a value for each of the substances that follow.

Below, each entry is followed by its recorded IgG MFI result.
- ESQLNLTVMAKPTN-NH2 (listed as Homo sapiens) [Peptide 39]: 2056
- FANPLPSVKITQVTW-NH2 (listed as Homo sapiens) [Peptide 32]: 1029
- GFIGTDVVLHCSFA-NH2 (listed as Homo sapiens) [Peptide 31]: 1756

I'm hoping you can list IgG MFI for every substance here, please.
1. NVAIYNPSMGVSVL-NH2 (listed as Homo sapiens) [Peptide 34]
2. ICEFATFPTGNRES-NH2 (listed as Homo sapiens) [Peptide 38]
3. VLAPYRERVEFLRP-NH2 (listed as Homo sapiens) [Peptide 35]

Output line:
1489
1568
1835

###

test system: nectin 4 protein on NIH:OVCAR-5 cells; test: Effect of peptides on anti-Nectin-4 antibody binding to cells as determined by flow cytometry; assay type: cell-based, human; settings: Run Two; IgG control primary antibody; Control 2 = 5,233
Where no end group is shown, it is not given here.
METRIC: IgG MFI

Reference set (3 entries):
* WTRLDGPLPSGVRV-NH2 (listed as Homo sapiens) [Peptide 22] | 7,160
* CLSEGQPPPSYNWT-NH2 (listed as Homo sapiens) [Peptide 21] | 3,989
* RVDGDTLGFPPLTT-NH2 (listed as Homo sapiens) [Peptide 23] | 3,342

# per-item lookup of IgG MFI; items listed below
1. TTEHSGIYVCHVSN-NH2 (listed as Homo sapiens) [Peptide 24]
2. HSQVVQVNDSMYGF-NH2 (listed as Homo sapiens) [Peptide 30]
3. VDVLDPQEDSGKQV-NH2 (listed as Homo sapiens) [Peptide 26]
4. TGNGIYINGRGHLV-NH2 (listed as Homo sapiens) [Peptide 29]
5. SNEFSSRDSQVTVD-NH2 (listed as Homo sapiens) [Peptide 25]
6. WTRLDGPLPSGVRVDGDT-NH2 (listed as Homo sapiens) [Peptide 28]
7. SGKQVDLVSAS-NH2 (listed as Homo sapiens) [Peptide 27]

Output line:
3,808
63,394
3,956
3,087
3,584
3,815
4,099

###

What nectin-4 antibody binding, percent of control was measured for each of the following?
test system: nectin 4 protein on NIH:OVCAR-5 cells; test: Effect of peptides on anti-Nectin-4 antibody binding to cells as determined by flow cytometry; assay type: cell-based, human; conditions: Run Five; antibody binding relative to Control 5 = 100
Where no end group is shown, it is not given here.
One number for each entry.

Give me nectin-4 antibody binding, percent of control for each of these substances, listed below.
1. NYSLAGTYICEATN-NH2 (listed as Homo sapiens) [Peptide 53]
2. VNITEFPYTPSPPEHGRRA-NH2 (listed as Homo sapiens) [Peptide 55]
3. HGRRAGPVPTA-NH2 (listed as Homo sapiens) [Peptide 56]
4. WTTLNGSLPKGVEAQNRT-NH2 (listed as Homo sapiens) [Peptide 57]
5. TNPIGTRSGQVEVN-NH2 (listed as Homo sapiens) [Peptide 54]

Output line:
1. 116.6
2. 116
3. 113.1
4. 72.38
5. 115.7

// for each substance in input: emit nectin-4 antibody binding, percent of control
1. WTTLNGSLPKGVEA-NH2 (listed as Homo sapiens) [Peptide 51]
2. EAQNRTLFFKGPINY-NH2 (listed as Homo sapiens) [Peptide 52]

Output line:
52.48
138
